Tested on: 786-0 renal
Test: NCI tumour cell line growth inhibition, 48 h; in the data active = GI50 below about 0.43 µM; inactive = the rest
Your answer must be one of the following: active, inactive

Request: For CC(=O)[CH-]C(=O)c1ccccc1.CC(=O)[CH-]C(=O)c1ccccc1.COc1cccc([O-])c1[O-].[Ti+4] , which call appears in the assay record?
Result: inactive

Request: Record request — test call for COc1ccc(Cl)cc1Nc1nc(C(F)(F)F)ccc1C(=O)N/N=C/c1ccc([N+](=O)[O-])cc1
Result: inactive

Request: What call does the record list for COc1ccc(-c2nn(-c3ccc(NC(=O)c4ccc(Cl)c(C(F)(F)F)c4)cc3)cc2-c2ccncc2)cc1Cl ?
Result: active

Request: Field: outcome | Entry: O=C(Cn1c(=O)c(-c2ccccc2)nc2ccccc21)c1ccc(Cl)cc1
Result: inactive

Request: Tell me the assay call for O=C(COc1ccc(/C=C2\Oc3ccccc3C2=O)cc1)Nc1nccs1 please.
Result: inactive

Request: Per the records of this test, what outcome belongs to O=[N+]([O-])c1cc([N+](=O)[O-])c(Cl)c(Cl)c1Cl ?
Result: inactive

Request: Hi, sorry to bother you, what did the test record for CN(CCC#N)c1ccc(/C=C(\C#N)c2cccc(C(F)(F)F)c2)cc1 ?
Result: inactive

Request: Hi, sorry to bother you, what did the test record for O=C(/C=C/C12c3ccccc3C(c3ccccc31)C1C(=O)N(c3ccccc3)C(=O)C12)c1ccc(Cl)cc1 (centres undefined) ?
Result: inactive

Request: What was the test verdict on O=S(=O)(Nc1cc(Br)c(O)c2ccccc12)c1ccc(F)cc1 ?
Result: inactive

Request: Per the assay record, what outcome was assigned to COc1cc(/C=N/Nc2ncnc3c2cnn3C(C)C)ccc1O ?
Result: inactive

Request: Recorded call for CN1CCN(CCCOc2cccc3nc(Nc4ccc(Cl)c(F)c4)ccc23)CC1 ?
Result: inactive

Request: Just curious, what result did O=C(/C=C1\C(=O)N(Cc2ccc([N+](=O)[O-])cc2)c2ccccc21)c1ccc(OCCN2CCCCC2)cc1 get here?
Result: inactive

Request: Dear all, I need the recorded test outcome for CCOC(=O)C1=C(C)NC2SC(=O)/C(=C\c3ccccc3Cl)N2C1c1ccccc1 (centres undefined) , thank you.
Result: inactive

Request: # fetch the recorded call for Cc1cc(Cc2cc(C)c(O)c(C)c2)cc(C)c1O here
Result: inactive

###

System: MDA-MB-435
Experiment: NCI tumour cell line growth inhibition, 48 h
Field: TGI. Provide a value for each of the compounds that follow.

Request: Supply TGI value. Item: O[C@@]1(c2cccs2)c2cccc(Cl)c2[C@](O)(c2cccs2)c2cccc(Cl)c21
Result: 35 µM

Request: // fetch TGI given entry N=C(N)C1CN(CCc2cnc[nH]2)C(=O)NC1=O (stereo unspecified)
Result: > 100 µM

Request: For the compound N#Cc1nc(C2CC2)oc1N , give its reported TGI.
Result: > 100 µM

Request: Name the recorded TGI of the compound listed here: N#Cc1nc(CSCc2ccccc2)oc1N
Result: > 100 µM

Request: Annotate the compound O=S(=O)(Nc1cc(Br)c(O)c2ccccc12)c1ccc(F)cc1 with its measured TGI.
Result: 3.3 µM

Request: # return recorded TGI for input C=C(C)C#CC(O)(C(=O)OC1CCN(C)CC1)C(C)C (stereo unspecified)
Result: > 100 µM

Request: Return TGI (reported value) for this compound: O=c1[nH]c(=O)n(C2CC(O)C(CO)O2)cc1NN=NCCc1ccccc1 (stereo unspecified)
Result: > 100 µM

Request: Output TGI of C=C[C@@H](OCOCC[Si](C)(C)C)[C@@H](CC)OC(CCCOC(=O)C(C)(C)C)OC (stereo partly specified)
Result: > 100 µM

Request: For the compound O=C1c2ccccc2NC(c2cc(Cl)cc(Cl)c2O)N1CCc1ccccn1 (stereo unspecified) , give its reported TGI.
Result: > 100 µM

Request: Supply TGI value. Item: CCN(CC)C(=O)CC1=C(C)/C(=C/c2[nH]c(-c3ccc[nH]3)cc2OC)N=C1C
Result: 14.6 µM

Request: Indicate its recorded TGI; the compound in question is NCC[Se][Se]CCN
Result: 24.9 µM
